molecular target: Thymidine kinase (Human herpesvirus 3, UniProt Q6QCL9); assay: Inhibitory activity against varicella zoster virus thymidine kinase (VZV TK+) OKA strain
Sequence (Q6QCL9 whole entry): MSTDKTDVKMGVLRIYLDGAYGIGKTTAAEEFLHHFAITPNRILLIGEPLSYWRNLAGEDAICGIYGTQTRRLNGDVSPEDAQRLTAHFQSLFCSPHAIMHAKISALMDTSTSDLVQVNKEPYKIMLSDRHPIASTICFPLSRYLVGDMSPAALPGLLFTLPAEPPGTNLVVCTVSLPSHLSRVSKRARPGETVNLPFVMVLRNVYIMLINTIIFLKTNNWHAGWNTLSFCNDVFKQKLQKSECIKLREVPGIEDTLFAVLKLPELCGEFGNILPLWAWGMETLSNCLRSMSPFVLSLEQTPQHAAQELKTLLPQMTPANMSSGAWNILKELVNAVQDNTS
reported.metric: EC50 (µM)
Your answer should be a plain number; it is taken to be in µM.

Q. Tell me measured EC50 for CC(C)CCCCCOP(=O)(COCCn1cnc2c(O)nc(N)nc21)OCCCCCC(C)C please.
A. 21.4

---

experiment: Inhibitory activity against varicella zoster virus thymidine kinase (VZV TK+) YS strain
Assignment: determine reported EC50 for the given molecules.

Q. Tell me measured EC50 for CC(C)CCCCCOP(=O)(COCCn1cnc2c(Cl)nc(N)nc21)OCCCCCC(C)C please.
A. > 3.75 µM

Q. Tell me measured EC50 for Nc1cc2c(ncn2CCOCP(=O)(O)O)c(N)n1 please.
A. > 17.4 µM

Q. Tell me measured EC50 for CC(C)CCCCCOP(=O)(COCCn1cnc2nc(N)nc(Cl)c21)OCCCCCC(C)C please.
A. > 9.39 µM

---

test: Inhibitory activity against varicella zoster virus thymidine kinase (VZV TK-) 07/1 strain
reported.metric: EC50

Q. Tell me measured EC50 for CSc1ncnc2c1ncn2CCOCP(=O)(O)O please.
A. > 1310 µM

Q. Tell me measured EC50 for CC(C)OP(=O)(COCCn1cnc2c(N)nc(N)nc21)OC(C)C please.
A. > 134 µM

Q. Tell me measured EC50 for CC(C)CCCCCOP(=O)(COCCn1cnc2nc(N)nc(Cl)c21)OCCCCCC(C)C please.
A. > 9.39 µM

---

assay: Inhibitory activity against varicella zoster virus thymidine kinase (VZV TK+) YS strain
reported.metric: pEC50
Please keep in mind that pEC50 is minus log10 of the molar concentration; only the number is needed.

Q. Tell me measured pEC50 for CC(C)OP(=O)(COCCn1cnc2c(Cl)nc(N)nc21)OC(C)C please.
A. 4.59

Q. Tell me measured pEC50 for CC(C)CCCCCOP(=O)(COCCn1cnc2nc(N)nc(O)c21)OCCCCCC(C)C please.
A. 4.23

Q. Tell me measured pEC50 for Nc1nc(S)c2c(ncn2CCOCP(=O)(O)O)n1 please.
A. 4.01

Q. Tell me measured pEC50 for CC(C)OP(=O)(COCCn1cnc2c(O)nc(N)nc21)OC(C)C please.
A. 4.43

Q. Tell me measured pEC50 for Nc1nccc2c1ncn2CCOCP(=O)(O)O please.
A. 3.44

Q. Tell me measured pEC50 for CC(C)OP(=O)(O)COCCn1cnc2c(O)nc(N)nc21 please.
A. 7.52

Q. Tell me measured pEC50 for CC(C)CCCCCOP(=O)(O)COCCn1cnc2c(O)nc(N)nc21 please.
A. 4.49

Q. Tell me measured pEC50 for CC(C)OP(=O)(COCCn1cnc2c(N)nc(Cl)nc21)OC(C)C please.
A. 5.03

Q. Tell me measured pEC50 for Nc1ccnc2c1ncn2CCOCP(=O)(O)O please.
A. 3.13

Q. Tell me measured pEC50 for Nc1nc(O)c2nc(Br)n(CCOCP(=O)(O)O)c2n1 please.
A. 4.31

---

assay: Inhibition of herpes simplex virus type 1 thymidine kinase (HSV-1 TK-) B2006 strain
reported.metric: EC50

Q. Tell me measured EC50 for CC(C)CCCCCOP(=O)(COCCn1cnc2c(N)ncnc21)OCCCCCC(C)C please.
A. > 6.43 µM

Q. Tell me measured EC50 for CC(C)CCCCCOP(=O)(COCCn1cnc2nc(N)nc(Cl)c21)OCCCCCC(C)C please.
A. > 30 µM

Q. Tell me measured EC50 for Nc1cccc2c1ncn2CCOCP(=O)(O)O please.
A. > 1470 µM

Q. Tell me measured EC50 for O=P(O)(O)COCCn1cnc2c(S)ncnc21 please.
A. > 1370 µM

Q. Tell me measured EC50 for CC(C)CCCCCOP(=O)(COCCn1cnc2c(O)nc(N)nc21)OCCCCCC(C)C please.
A. > 155 µM

Q. Tell me measured EC50 for CC(C)OP(=O)(O)COCCn1cnc2c(N)nc(N)nc21 please.
A. > 1210 µM

Q. Tell me measured EC50 for CC(C)OP(=O)(COCCn1cnc2c(N)ncnc21)OC(C)C please.
A. > 1110 µM

Q. Tell me measured EC50 for CC(C)CCCCCOP(=O)(COCCn1cnc2c(Cl)nc(N)nc21)OCCCCCC(C)C please.
A. > 30 µM

Q. Tell me measured EC50 for Nc1nc(O)nc2c1ncn2CCOCP(=O)(O)O please.
A. > 1380 µM

Q. Tell me measured EC50 for CC(C)OP(=O)(O)COCCn1cnc2c(N)ncnc21 please.
A. > 1260 µM

Q. Tell me measured EC50 for Nc1nc(O)c2c(ncn2CCOCP(=O)(O)O)n1 please.
A. > 691 µM

Q. Tell me measured EC50 for Nc1nc(S)c2c(ncn2CCOCP(=O)(O)O)n1 please.
A. > 327 µM

Q. Tell me measured EC50 for Nc1ccnc2c1ncn2CCOCP(=O)(O)O please.
A. 734 µM

Q. Tell me measured EC50 for CC(C)OP(=O)(COCCn1cnc2nc(N)nc(O)c21)OC(C)C please.
A. > 535 µM

Q. Tell me measured EC50 for CC(C)OP(=O)(COCCn1cnc2c(N)nc(N)nc21)OC(C)C please.
A. 644 µM

Q. Tell me measured EC50 for Nc1cc2ncn(CCOCP(=O)(O)O)c2c(O)n1 please.
A. > 693 µM

Q. Tell me measured EC50 for CC(C)CCCCCOP(=O)(COCCn1cnc2c(N)nc(N)nc21)OCCCCCC(C)C please.
A. > 31.2 µM

Q. Tell me measured EC50 for NC1=NC2N=CC=NC2C(=O)N1CCOCP(=O)(O)O (centres undefined) please.
A. 230 µM

Q. Tell me measured EC50 for CC(C)OP(=O)(O)COCCn1cnc2c(O)nc(N)nc21 please.
A. 17.2 µM

Q. Tell me measured EC50 for CC(C)OP(=O)(COCCn1cnc2c(S)ncnc21)OC(C)C please.
A. > 1060 µM

Q. Tell me measured EC50 for Nc1nc(N)c2nc(Br)n(CCOCP(=O)(O)O)c2n1 please.
A. 54.4 µM

Q. Tell me measured EC50 for CC(C)OP(=O)(COCCn1c(Br)nc2c(N)nc(N)nc21)OC(C)C please.
A. > 886 µM

Q. Tell me measured EC50 for CC(C)CCCCCOP(=O)(COCCn1cnc2nc(N)nc(O)c21)OCCCCCC(C)C please.
A. > 31.1 µM

Q. Tell me measured EC50 for Nc1nnc(N)c2c1ncn2CCOCP(=O)(O)O please.
A. > 693 µM

Q. Tell me measured EC50 for Nc1nc(O)c2nc(Br)n(CCOCP(=O)(O)O)c2n1 please.
A. > 1080 µM

Q. Tell me measured EC50 for Nc1nc(=O)n(CCOCP(=O)(O)O)cc1Br please.
A. 914 µM

Q. Tell me measured EC50 for CC(C)OP(=O)(COCCn1c(Br)nc2c(O)nc(N)nc21)OC(C)C please.
A. > 884 µM

Q. Tell me measured EC50 for Nc1cc2c(ncn2CCOCP(=O)(O)O)c(N)n1 please.
A. 1390 µM

Q. Tell me measured EC50 for CCOP(=O)(O)COCCn1cnc2c(N)nc(N)nc21 please.
A. 632 µM

---

test: Inhibitory activity against varicella zoster virus thymidine kinase (VZV TK+) OKA strain
Assignment: determine reported EC50 for the given compounds.

Q. Tell me measured EC50 for Nc1cc2c(ncn2CCOCP(=O)(O)O)c(N)n1 please.
A. > 17.4 µM

Q. Tell me measured EC50 for Nc1nccc(OCCOCP(=O)(O)O)n1 please.
A. > 401 µM

Q. Tell me measured EC50 for CC(C)OP(=O)(O)COCCn1cnc2c(N)ncnc21 please.
A. > 158 µM

Q. Tell me measured EC50 for Nc1ccn(CCOCP(=O)(O)O)c(=O)c1 please.
A. > 402 µM

Q. Tell me measured EC50 for CC(C)CCCCCOP(=O)(COCCn1cnc2c(Cl)nc(N)nc21)OCCCCCC(C)C please.
A. > 3.75 µM

Q. Tell me measured EC50 for CC(C)OP(=O)(COCCn1cnc2c(N)ncnc21)OC(C)C please.
A. 19.5 µM

Q. Tell me measured EC50 for Nc1ccnc2c1ncn2CCOCP(=O)(O)O please.
A. > 1460 µM

Q. Tell me measured EC50 for CCOP(=O)(O)COCCn1cnc2c(N)nc(N)nc21 please.
A. 12.6 µM

Q. Tell me measured EC50 for CC(C)OP(=O)(COCCn1cnc2c(N)nc(N)nc21)OC(C)C please.
A. > 134 µM

Q. Tell me measured EC50 for Nc1nc(=O)ccn1CCOCP(=O)(O)O please.
A. > 401 µM

Q. Tell me measured EC50 for Nc1nc(O)nc2c1ncn2CCOCP(=O)(O)O please.
A. > 172 µM

Q. Tell me measured EC50 for CSc1ncnc2c1ncn2CCOCP(=O)(O)O please.
A. 164 µM

Q. Tell me measured EC50 for Nc1ncnc2c1ccn2CCOCP(=O)(O)O please.
A. 183 µM

Q. Tell me measured EC50 for Cc1nc(N)nc2c1ncn2CCOCP(=O)(O)O please.
A. > 174 µM

Q. Tell me measured EC50 for CC(C)OP(=O)(COCCn1c(Br)nc2c(O)nc(N)nc21)OC(C)C please.
A. > 110 µM

Q. Tell me measured EC50 for Nc1cccc2c1ncn2CCOCP(=O)(O)O please.
A. > 184 µM

Q. Tell me measured EC50 for CC(C)OP(=O)(O)COCCn1cnc2c(N)nc(N)nc21 please.
A. 96.8 µM

Q. Tell me measured EC50 for CC(C)CCCCCOP(=O)(COCCn1cnc2c(N)ncnc21)OCCCCCC(C)C please.
A. 4.82 µM

Q. Tell me measured EC50 for Nc1cc2c(ncn2CCOCP(=O)(O)O)c(O)n1 please.
A. 2.56 µM

Q. Tell me measured EC50 for CC(C)CCCCCOP(=O)(COCCn1cnc2c(N)nc(N)nc21)OCCCCCC(C)C please.
A. > 9.75 µM

Q. Tell me measured EC50 for Nc1nc(S)c2c(ncn2CCOCP(=O)(O)O)n1 please.
A. 121 µM
